# test details: Toxicity liver stage against HepG2, at 10uM
# Type: cell-based
# Parameters: test concentration 10 uM, cell line HepG2-A16-CD81EGFP
# condition set: human, HepG2-A16-CD81EGFP cells; read-out: INHIBITION
value kind: cytotoxicity at 10 µM (%)
Give bare numbers, in %.

COc1ccc(Cl)cc1-c1nc(N)nc(N(C)C)n1; -4.01
Cc1cnn(CC2CCCN2C(=O)c2cc3c(F)cccc3[nH]2)c1 (stereo not drawn); -12.7
CN(Cc1cc2c(cc1OC(F)F)OCO2)Cc1nccn1C; -1.21
CCNc1cc2c(nn1)CCN(C(=O)c1ccc3cc[nH]c3c1)C2; -6.95
CNC(=O)C1CCCCN1C(=O)c1n[nH]c(=O)c2ccccc12 (stereo not drawn); 0.0666

Can you give me cytotoxicity at 10 µM for all of these, one by one?
1. Cc1ccc(C(=O)N2CCN3C[C@H](Oc4cccc(F)c4)C[C@H]3C2)cn1
2. COC[C@]1(O)CCN(C2CCN(c3ccc(F)c(F)c3)CC2)CC1(C)C

**A:**
11.2
-3.85
